Test: gradient 5% acetonitrile 3 min, to 50% in 2 min, to 85% in 15 min, held 3 min, 100 µL/min
Settings: column: Zorbax Extend-C18 2.1 x 50 mm; eluents: water / acetonitrile, 0.1% formic acid
Returns TRUE if the recorded RP-LC retention time is greater than or equal to 800 s, and FALSE otherwise.

Request: In plain terms: is recorded RP-LC retention time at least 800 s for CN(C)C(=O)c1ccc2c(c1)nc(CN1CCN(C(=O)NC3CCCCC3)CC1)n2C ?
Result: FALSE

Request: Reported RP-LC retention time at or above 800 s? O=C(N1CC(Oc2ccc(-c3nc(-c4ccccc4)no3)cc2)C1)C1(c2ccccc2)CC1
Result: TRUE

---

Assay: gradient 5% acetonitrile 3 min, to 50% in 2 min, to 85% in 15 min, held 3 min, 100 µL/min
Conditions: column: Zorbax Extend-C18 2.1 x 50 mm; eluents: water / acetonitrile, 0.1% formic acid
Entries and their RP-LC retention time values follow.
Give just the number in s; leave the unit off.

COMPOUND: CCCNC(=O)C1CCCN(c2nc3ncn(CC(=O)Nc4ccc(CC)cc4)c(=O)c3s2)C1 (stereo unspecified)
RP-LC retention time / s: 741
--
COMPOUND: O=C(Nc1nnc(Cc2ccccc2)s1)C1CC(=O)N(c2n[nH]c3cccc(F)c23)C1 (stereo unspecified)
RP-LC retention time / s: 745
--
COMPOUND: CCOCC(=O)N1CCCC1CCc1ncc(C)n1C(C)C (stereo unspecified)
RP-LC retention time / s: 574
--
COMPOUND: CCCN(CCC)[C@@H]1CCc2c(OC)cccc2[C@@H]1C
RP-LC retention time / s: 802
--
COMPOUND: O=C(NCC(O)c1ccsc1)Nc1cccs1 (stereo unspecified)
RP-LC retention time / s: 642

We now examine a further compound.
RP-LC retention time reading for CCOC(=O)c1c(C)n(C)c2c1cc(O)c1ccccc12 : 945

---

Experiment: gradient 5% acetonitrile 3 min, to 50% in 2 min, to 85% in 15 min, held 3 min, 100 µL/min
Details: column: Zorbax Extend-C18 2.1 x 50 mm; eluents: water / acetonitrile, 0.1% formic acid
ASSAY METRIC: RP-LC retention time (s)
Numbers only; they are read as s.

Example results:
MOLECULE: CCOC(=O)c1[nH]c(C)c(CCC(=O)N2CCCC(C(=O)NCc3ccc(N(C)C)cc3)C2)c1C (configuration not stated)
ENDPOINT VALUE: 629

MOLECULE: NC(=O)[C@@H](CCC(F)(F)F)N(Cc1ccc(-c2ncon2)cc1F)S(=O)(=O)c1ccc(Cl)cc1
ENDPOINT VALUE: 1030

MOLECULE: COc1ccc2cccc(NC(=O)c3ccco3)c2n1
ENDPOINT VALUE: 1010

MOLECULE: Cc1c(NC(=O)C2CCN(S(=O)(=O)Cc3ccccc3)CC2)c(=O)n(-c2ccccc2)n1C
ENDPOINT VALUE: 672

MOLECULE: Cc1nc(N2CCN(C(c3ccccc3)c3ccccc3)CC2)nc2c1C(=O)CC(c1cccs1)C2 (configuration not stated)
ENDPOINT VALUE: 1150

According to the records, this molecule COc1ccc(-n2nc3c(c2N)CSC3)cc1 displays RP-LC retention time of 629

Per the record, Cc1ccc2[nH]cc(CCN3CC(C(=O)Nc4cccc(C)c4C)CC3=O)c2c1 (configuration not stated) has RP-LC retention time of 820

Source of measurements: the METLIN SMRT retention time set (Domingo-Almenara et al. 2019)
